I'd appreciate it if you could supply solubility kinetic values for the items below.
Test: Solubility (kinetic, thermodynamic)
Type: physicochemical
Condition notes: kinetic from dmso stock
Give the value; after it, write the unit.

O=C(O)CCCCCOc1ccccc1CN(C(=O)c1ccc(-c2ccco2)cc1)C1CC1 [compound 12]
6 µM

Next:
Exercise: Fill in the blank: the reported solubility kinetic of Cc1cc(SCc2sc(-c3ccc(C(F)(F)F)cc3)nc2C)ccc1OCC(=O)O [GW501516] is ____.
Solution: 195 µM

====

Test system: Human PPARδ LBD (Homo sapiens)
Construct: (PPARδ amino acid 128 to C-terminus); expressed in transfected cells; host or cells: CV-1 cells
Sequence (Q03181 128-441 limits assumed): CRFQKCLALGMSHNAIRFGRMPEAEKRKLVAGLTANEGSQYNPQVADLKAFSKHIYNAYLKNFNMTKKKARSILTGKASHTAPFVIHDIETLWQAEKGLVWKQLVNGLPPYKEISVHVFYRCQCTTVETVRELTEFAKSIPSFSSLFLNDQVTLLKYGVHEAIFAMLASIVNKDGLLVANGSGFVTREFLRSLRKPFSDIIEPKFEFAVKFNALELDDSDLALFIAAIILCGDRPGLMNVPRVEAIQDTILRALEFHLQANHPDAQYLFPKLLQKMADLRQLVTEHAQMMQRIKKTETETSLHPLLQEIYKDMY
Test: PPARδ activity screen (GAL4-PPARδ LBD luciferase transactivation in CV-1 cells)
Assay type: cell-based
Condition notes: Table 15; read-out: PPARd, EC50 (nM) (from Salk)
Measure name: EC50 (nM)
Answers are plain numbers, in nM.

Reference set (2 entries):
CC(C)N(Cc1ccccc1OCCCCCC(=O)O)C(=O)c1ccc(-c2ccoc2)cc1
61
CC(C)N(Cc1ccccc1OCCCCCC(=O)O)C(=O)c1ccc(-c2ccco2)cc1
9

We next turn to a different molecule, shown below.
Exercise: Which EC50 reading was recorded for the molecule CC(C)N(Cc1ccccc1OCCCCCC(=O)O)C(=O)c1ccc(-c2ccsc2)cc1 ?
Solution: 17.2

====

Test: Pharmacokinetics in male Wistar rats (i.v. and p.o.)
Type: in vivo
Condition notes: rat, po; male Wistar rats, 10 mg/Kg p.o., plasma
Measure name: Cmax (ng/mL)
One number for each entry, in ng/mL.

Exercise: Looking for the measured Cmax of Cc1cc(SCc2sc(-c3ccc(C(F)(F)F)cc3)nc2C)ccc1OCC(=O)O [GW501516] , can you help?
Solution: 6920

====

Test: Pharmacokinetics in male CD-1 mice (i.v. and p.o.)
Type: in vivo
Condition notes: male, CD-1, mouse, plasma, iv, 3 mg/kg
Measure name: clearance (mL/min/kg)
Give bare numbers, in mL/min/kg.

Exercise: Reported clearance, molecule Cc1cc(SCc2sc(-c3ccc(C(F)(F)F)cc3)nc2C)ccc1OCC(=O)O : ____
Solution: 4.42

====

Test: Pharmacokinetics in male CD-1 mice (i.v. and p.o.)
Format: in vivo
Condition notes: male, CD-1, mouse, plasma, po, 10 mg/kg; read-out: T1/2 (converted)
Measure name: half-life
In your response, put the unit directly after the numeric value.

Exercise: Reported half-life for Cc1cc(SCc2sc(-c3ccc(C(F)(F)F)cc3)nc2C)ccc1OCC(=O)O : what is it?
Solution: 5.98 h

====

Test: Pharmacokinetics in male Wistar rats (i.v. and p.o.)
Format: in vivo
Condition notes: rat, iv; male Wistar rats, 3 mg/Kg i.v., plasma
Measure name: AUC(0-inf)

Exercise: Any idea what its AUC(0-inf) is? The compound is Cc1cc(SCc2sc(-c3ccc(C(F)(F)F)cc3)nc2C)ccc1OCC(=O)O
Solution: 9960 ng·h/mL

====

Test: Pharmacokinetics in male Wistar rats (i.v. and p.o.)
Type: in vivo
Condition notes: rat, iv; male Wistar rats, 3 mg/Kg i.v., plasma
Experimental: In this example, the PK profile of several PPARδ agonists disclosed herein in male CD-1 mice or Wistar rats was determined. Similar methods can be used to analyze other compounds provided herein. […] The concentration of the compound in plasma was determined, as illustrated in FIGS. 9A-9E.
Measure name: C0 (ng/mL)
Answers are plain numbers, in ng/mL.

Exercise: Entry Cc1cc(SCc2sc(-c3ccc(C(F)(F)F)cc3)nc2C)ccc1OCC(=O)O has what C0?
Solution: 5280
